Target Or Test System: MMP-1FL (collagenase-1 full length enzyme) (Homo sapiens)
Construct: MMP-1FL (collagenase-1 full length enzyme)
Sequence (P03956 100-469): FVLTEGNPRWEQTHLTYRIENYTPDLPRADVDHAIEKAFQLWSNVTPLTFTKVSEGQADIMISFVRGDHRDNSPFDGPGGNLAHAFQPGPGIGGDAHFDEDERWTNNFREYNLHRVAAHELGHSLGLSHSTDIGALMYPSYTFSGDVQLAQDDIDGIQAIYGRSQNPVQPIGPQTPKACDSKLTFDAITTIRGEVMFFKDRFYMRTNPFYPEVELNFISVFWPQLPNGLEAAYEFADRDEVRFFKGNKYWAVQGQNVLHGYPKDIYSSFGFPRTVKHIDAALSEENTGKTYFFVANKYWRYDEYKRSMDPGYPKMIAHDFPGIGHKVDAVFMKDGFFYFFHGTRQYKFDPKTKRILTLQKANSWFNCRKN
Measurement Notes: MMP inhibition, thiopeptolide substrate assay
Type: biochemical
Recorded Conditions: thiopeptolide substrate Ac-Pro-Leu-Gly-thioester-Leu-Leu-Gly-OEt
This section presents compounds with their documented IC50 values.
Value Type: IC50 (µM)

[
  {
    "Compound": "O=C(CC(CCCc1ccccc1)C(=O)O)c1ccc2c3c(oc2c1)CCCC3 (centres unmarked) [Example 2]",
    "Meas Value": 67
  },
  {
    "Compound": "CN1C(=O)N(CC(CC(=O)c2ccc3c4c(oc3c2)CCCC4)C(=O)O)C(=O)C1(C)C (centres unmarked) [Example 3]",
    "Meas Value": 31
  }
]
